Assay Target: Hexose transporter 1 (Plasmodium falciparum)
Test Details: ST_JUDE_LEISH: Cytotoxicity at 2uM final concentration against transgenic Leishmania Mexicana promastigotes LmPfHT that are glucose transport deficient and complemented with the Plasmodium falciparum hexose transporter. Activity is measured by DNA content using SYBR green in vitro
Type: functional
Reported inhibition is given for each of the following compounds.

{"columns": ["Compound", "Assay Target", "inhibition (%)"],
 "data": [
  ["CCN(CC)CC(O)c1cc(-c2ccc(C)cc2)nc2c(C)cc(C)cc12 (centres undefined)", "Hexose transporter 1 (Plasmodium falciparum)", 3.65],
  ["COc1ccc(-c2ccc(CNC(=O)c3ccc(Cl)cc3)c(F)c2)cc1CN1CCCN(C)CC1", "Hexose transporter 1 (Plasmodium falciparum)", 0.3],
  ["COc1cccc(CN2Cc3ccccc3OC3(CCN(Cc4c[nH]c5cnccc45)CC3)C2)c1", "Hexose transporter 1 (Plasmodium falciparum)", -0.52],
  ["COc1ccc(NC(C)C(=O)Nc2ccc(Br)cc2)cc1S(=O)(=O)N1CCCCC1 (centres undefined)", "Hexose transporter 1 (Plasmodium falciparum)", 1.34],
  ["Fc1cc(CN2CCCC2)ccc1OCCCN1CCN(c2cccc(Cl)c2Cl)CC1", "Hexose transporter 1 (Plasmodium falciparum)", 5.47],
  ["Cn1c(Sc2ncnc3sccc23)nc2ccccc21", "Hexose transporter 1 (Plasmodium falciparum)", 2.23],
  ["NS(=O)(=O)c1ccc(CNC(=O)c2cnc3c(O)cccc3c2Nc2cccc(NC(=O)c3ccc(Cl)c(Cl)c3)c2)cc1", "Hexose transporter 1 (Plasmodium falciparum)", 5.59],
  ["Cc1cccc2nc(-c3ccc(-c4ccc(CNCc5cnn(-c6ccccc6)n5)cc4)cc3)[nH]c12", "Hexose transporter 1 (Plasmodium falciparum)", 1.39],
  ["CC(C)c1ccc(CN2CCC(CNC(=O)c3cc(-c4cccc(Cl)c4)cs3)C2)cc1 (centres undefined)", "Hexose transporter 1 (Plasmodium falciparum)", 3.19]
]}

----------
Assay Target: Glucose transporter (Leishmania mexicana) (UniProt O61059)
Test Details: ST_JUDE_LEISH: Cytotoxicity at 2uM final concentration against transgenic Leishmania Mexicana promastigotes LmGT2 that are glucose transport deficient and complemented with the L. Mexicana glucose transporter 2. Activity is measured by DNA content using SYBR green in vitro
Assay type: functional
Reported inhibition is given for each of the following molecules.
Measured Property: inhibition

{"columns": ["Molecule", "Assay Target", "Measured Property", "Data Value"],
 "data": [
  ["Cc1cc(NCCc2ccccc2)nc(NC(=N)Nc2cccc(Cl)c2)n1", "Glucose transporter (Leishmania mexicana) (UniProt O61059)", "inhibition", "0.63%"],
  ["CCCNCc1ccc(-c2ccc(CN(CCOC)C(=O)CCc3ccc(OC)cc3)cc2)nc1", "Glucose transporter (Leishmania mexicana) (UniProt O61059)", "inhibition", "1.11%"],
  ["CC(=O)Nc1ccc(OCCN(Cc2ccccc2OC(F)(F)F)c2ccc(C(F)(F)F)c(C#N)c2)c(Cl)c1", "Glucose transporter (Leishmania mexicana) (UniProt O61059)", "inhibition", "4.14%"],
  ["Cc1cccc2[nH]cc(C3CCN(CCC4CCN(C(=O)/C=C/c5ccc(Cl)c(Cl)c5)CC4)CC3)c12", "Glucose transporter (Leishmania mexicana) (UniProt O61059)", "inhibition", "2.11%"],
  ["Cc1ccccc1C1CCN(C2CCC(NC(=O)c3ccc(-c4cccs4)s3)CC2)CC1 (centres undefined)", "Glucose transporter (Leishmania mexicana) (UniProt O61059)", "inhibition", "1.93%"],
  ["Cc1cc(C)c(C(=O)Nc2ccc3nc(C)cc(N)c3c2)c(C)c1", "Glucose transporter (Leishmania mexicana) (UniProt O61059)", "inhibition", "2.61%"],
  ["Cc1cccc2nc(-c3ccc(-c4ccc(CNCc5ccc(CN)cc5)cc4)cc3)[nH]c12", "Glucose transporter (Leishmania mexicana) (UniProt O61059)", "inhibition", "2.77%"],
  ["O=C(NCc1ccc2c(c1)OCO2)c1nn(CCN2CCC(N3CCCC3)CC2)cc1-c1ccc(Cl)c(Cl)c1", "Glucose transporter (Leishmania mexicana) (UniProt O61059)", "inhibition", "0.75%"],
  ["O=C(/C=C/c1ccc(Cl)c(Cl)c1)NCCCCN1CCCN(C(=O)Nc2ccc(F)c(Cl)c2)CC1", "Glucose transporter (Leishmania mexicana) (UniProt O61059)", "inhibition", "-0.33%"],
  ["CCN1CCN(c2cc(C)c3cc(NC(=O)c4ccc(OC)c(OC)c4)ccc3n2)CC1", "Glucose transporter (Leishmania mexicana) (UniProt O61059)", "inhibition", "0.24%"],
  ["O=C(Nc1ccc(-c2nc3ccccc3[nH]2)cc1)c1ccc(S(=O)(=O)N2CCCCC2)cc1", "Glucose transporter (Leishmania mexicana) (UniProt O61059)", "inhibition", "0.68%"],
  ["CCCc1ccccc1Nc1nc(C)cc(N(CC)CCCN2CCCCC2)n1", "Glucose transporter (Leishmania mexicana) (UniProt O61059)", "inhibition", "5.53%"],
  ["c1ccc2[nH]c(-c3ccc(-c4ccc(CNC5CC5)cc4)s3)nc2c1", "Glucose transporter (Leishmania mexicana) (UniProt O61059)", "inhibition", "-2.14%"],
  ["CN(C)CC(=O)NCC(NCCCNc1cc(=O)c2ccccc2[nH]1)c1cc(Br)cc(Br)c1 (centres undefined)", "Glucose transporter (Leishmania mexicana) (UniProt O61059)", "inhibition", "5.64%"],
  ["Cc1cccc2nc(-c3ccc(-c4cccc(CNCC5CCCO5)c4)cc3)[nH]c12 (centres undefined)", "Glucose transporter (Leishmania mexicana) (UniProt O61059)", "inhibition", "8.96%"],
  ["OCCOCCNCc1cccc(C#Cc2cc3ncnc(Nc4ccc(OCc5cccc(F)c5)c(Cl)c4)c3s2)n1", "Glucose transporter (Leishmania mexicana) (UniProt O61059)", "inhibition", "1.82%"],
  ["COc1ccc2nccc(N3CCC(CCNCc4cc5c(cn4)OCCO5)CC3)c2c1", "Glucose transporter (Leishmania mexicana) (UniProt O61059)", "inhibition", "4.48%"],
  ["COc1cc(Cc2cnc(N)nc2N)cc(OCCCC(=O)O)c1OC", "Glucose transporter (Leishmania mexicana) (UniProt O61059)", "inhibition", "1.78%"],
  ["O=C1OC2(CN1CC1CCN(Cc3ccc(O)c(Cl)c3)CC1)c1ccccc1-c1ccccc12", "Glucose transporter (Leishmania mexicana) (UniProt O61059)", "inhibition", "3.94%"],
  ["CN(C)CCOc1cc(NC(=O)Nc2ccc3c(c2)CCCC3=O)ccc1I", "Glucose transporter (Leishmania mexicana) (UniProt O61059)", "inhibition", "4.5%"],
  ["CCCCCCC1(C)N=C(N)N=C(N)C1c1ccc(Cl)c(Cl)c1 (centres undefined)", "Glucose transporter (Leishmania mexicana) (UniProt O61059)", "inhibition", "0.06%"],
  ["O=C(/C=C/c1ccc2ccccc2c1)NCC1(c2ccc(-c3ccccc3)cc2)CCOCC1", "Glucose transporter (Leishmania mexicana) (UniProt O61059)", "inhibition", "3.08%"],
  ["CCCc1cc(N2CCC(N3CCCC3)CC2)nc(Nc2ccc(OC)cc2)n1", "Glucose transporter (Leishmania mexicana) (UniProt O61059)", "inhibition", "0.63%"],
  ["FC(F)(F)c1ccc2c(NCCCNc3ccnc4cc(C(F)(F)F)ccc34)ccnc2c1", "Glucose transporter (Leishmania mexicana) (UniProt O61059)", "inhibition", "-4.41%"],
  ["Nc1nc(N)c2c(ccc3nn(C4CCCC4)cc32)n1", "Glucose transporter (Leishmania mexicana) (UniProt O61059)", "inhibition", "5.28%"],
  ["CCN(CC)CCCC(C)N/C(=N\\c1ccccc1Br)Nc1ccc(C#N)cc1O (centres undefined)", "Glucose transporter (Leishmania mexicana) (UniProt O61059)", "inhibition", "-1.67%"],
  ["O=C(Nc1cc(C(F)(F)F)cc(C(F)(F)F)c1)Nc1cc(C(F)(F)F)cc(C(F)(F)F)c1", "Glucose transporter (Leishmania mexicana) (UniProt O61059)", "inhibition", "3.86%"],
  ["O=C(Nc1ccc2c(c1)CCN(C1CCC1)CC2)c1ccc(-c2cn3ccccc3n2)cc1", "Glucose transporter (Leishmania mexicana) (UniProt O61059)", "inhibition", "3.48%"],
  ["COc1ccc2c(c1)[nH]c1c(/C=C/c3ccc([N+](=O)[O-])cc3)nccc12", "Glucose transporter (Leishmania mexicana) (UniProt O61059)", "inhibition", "3.6%"],
  ["O=C(Nc1ccc(-c2cncc(NCCCN3CCCC3)c2)cc1)c1ccccc1", "Glucose transporter (Leishmania mexicana) (UniProt O61059)", "inhibition", "1.55%"],
  ["O=C(CCCC(=O)Nc1ccc(C2=NCCN2)cc1)Nc1ccc(C2=NCCN2)cc1", "Glucose transporter (Leishmania mexicana) (UniProt O61059)", "inhibition", "-0.14%"],
  ["CN1CCCC1CCNCc1cccc(-c2cnc(N3CCCC(C)(C)C3)nc2)c1 (centres undefined)", "Glucose transporter (Leishmania mexicana) (UniProt O61059)", "inhibition", "104%"],
  ["CN1CCN(c2ccc(Nc3ncc([N+](=O)[O-])c(Nc4ccccc4O)n3)cc2)CC1", "Glucose transporter (Leishmania mexicana) (UniProt O61059)", "inhibition", "1.84%"],
  ["CC(NCCC1CCC(NC(=O)N[C@H](C)C(O)(c2ccccc2)c2ccccc2)CC1)c1cccc2ccccc12 (some centres undefined)", "Glucose transporter (Leishmania mexicana) (UniProt O61059)", "inhibition", "13.4%"],
  ["CCN(CC)CCCC(C)Nc1c2ccccc2nc2c1ccc1ccccc12 (centres undefined)", "Glucose transporter (Leishmania mexicana) (UniProt O61059)", "inhibition", "7.76%"],
  ["O=C(O)/C=C/c1cccc(F)c1F", "Glucose transporter (Leishmania mexicana) (UniProt O61059)", "inhibition", "2.66%"],
  ["Cc1ccc(NC(=O)NC2CCN(CCC(NC(=O)Cc3ccccc3)c3ccc(Cl)c(Cl)c3)CC2)cc1 (centres undefined)", "Glucose transporter (Leishmania mexicana) (UniProt O61059)", "inhibition", "-3.14%"],
  ["CC(C)[C@H](NC(=O)c1c(CN2CCC(N3CCCCC3)CC2)c(-c2ccccc2)nc2cc(O)ccc12)c1ccccc1", "Glucose transporter (Leishmania mexicana) (UniProt O61059)", "inhibition", "0.91%"],
  ["COC1CCC(C(=O)Nc2ccc(-c3cccc(-c4nc5cc(C(F)(F)F)ccc5[nH]4)c3)cc2)CC1 (centres undefined)", "Glucose transporter (Leishmania mexicana) (UniProt O61059)", "inhibition", "0.65%"]
]}

Numbers sourced from ChEMBL document CHEMBL3433997.
